// provenance: patent US20080248043A1

Target: S1-Ig (12-672) (SARS-CoV; human, UniProt P59594 12-672)
Assay: ELISA, coated S1-IgG 12-672
reported metric: Reactivity S1-IgG (ELISA OD)

INSERT INTO measurements (binder, recorded_number) VALUES
  ('5E4 (antibody, V domains shown) VH: QVHLVQSGAEVKKPGASVKVSCKASGYTFTGYYVHWVRQAPGQGLEWMGWINPNSGGTNYAQKFQGRVTMTRDTSISTAYMELSRLRSDDTAVYFCAGGRYLDYWGQGTLVTVSS VL: DIQMTQSPSSLSASVGDRVTITCRASQGIRNDLGWYQQKPGKAPKRLIYAASSLQSGVPSRFSGSGSGTEFTLTISSLQPEDFATYYCLQYNSYPITFGQGTRLEIK', 0.735),
  ('6B1 (antibody, V domains shown) VH: QVQLVESGGGVVQPGTSLRLSCAASGFTFSSYGIHWVRQAPGKGLEWVAVIWYDGSNKFHADSVKGRFTISRDNSKNTLYLQMNSLRAEDTAVYYCARDPLGYCSSTSCSYFDYWGQGTLVTVSS VL: DIQMTQSPSSVSASVGDRVTITCRASQGISNWLAWYQQKPGKAPKLLIYAASSLQSGVPSRFSGSGSGTDFTLTISSLQPEDFATYYCQQANNFPLTFGGGTKVEIK', 1.13),
  ('3H12 (antibody, V domains shown) VH: QVQLQESGPGLVKPSETLSLTCTVSDGSISSFYWSWIRQPPGKGLEWIGYIYYSGSTNYNPSLKSRVTISVDTSKNQFSLKLSSVTAADTAVYYCARDYDILTGYSNYYGMDVWGQGTTVTVSS VL: DIQMTQSPSSLSASVGDRVTITCRASQGIRNDLGWYQQKPGKAPKRLIYAASSLQSGVPSRFSGSGSGTEFTLTISSLQPEDFATYYCLQHNSYPFTFGPGTKLDIK', 0.185);
